Target: MAGL (Homo sapiens)
Sequence (Q99685 1-303): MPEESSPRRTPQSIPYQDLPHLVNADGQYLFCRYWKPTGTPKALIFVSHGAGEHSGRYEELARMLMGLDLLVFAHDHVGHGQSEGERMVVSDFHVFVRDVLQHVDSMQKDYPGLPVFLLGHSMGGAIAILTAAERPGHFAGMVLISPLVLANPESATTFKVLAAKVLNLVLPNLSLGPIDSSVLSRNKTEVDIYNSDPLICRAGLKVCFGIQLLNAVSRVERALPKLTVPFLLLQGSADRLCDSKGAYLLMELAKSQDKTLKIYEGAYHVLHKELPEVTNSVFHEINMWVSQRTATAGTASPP
# label = True if IC50 < 800 nM else False

stdin: Is the reported IC50 for O=C(N1CCC(C(c2ccccc2)c2ccccc2)CC1)N1CCc2ccc(=O)[nH]c2C1 strictly below 800 nM?
stdout: True

stdin: In the record for O=C1CN[C@H]2CCN(C(=O)N3CC(OCc4ccc(C(F)(F)F)cc4F)C3)C[C@H]2N1 (single isomer, unassigned) , is IC50 less than 800 nM?
stdout: True

stdin: State whether 800 nM exceeds IC50 recorded for O=C1CO[C@H]2[C@H](CN(C(=O)N3CC(OCc4ccc(C(F)(F)F)cc4F)C3)CC2(F)F)N1 (single isomer, unassigned) .
stdout: True

stdin: Say whether its IC50 is strictly beneath 800 nM. Entry: O=C(N1CCc2ccc(=O)[nH]c2C1)N1CC(OCc2ccc(C(F)(F)F)cc2F)C1
stdout: True

stdin: Check if IC50 falls below 800 nM for O=C1CO[C@@H]2[C@@H](CN(C(=O)N3CC(OCc4ccc(C(F)(F)F)cc4F)C3)CC2(F)F)N1 (single isomer, unassigned) .
stdout: False

stdin: I'd appreciate it if you could check whether O=C1CN[C@@H]2CCN(C(=O)N3CC(OCc4ccc(C(F)(F)F)cc4F)C3)C[C@@H]2N1 (single isomer, unassigned) has IC50 smaller than 800 nM.
stdout: False

stdin: Would you kindly verify if IC50 of O=C1CC[C@H]2CCN(C(=O)N3CC(OCc4ccc(C(F)(F)F)cc4F)C3)C[C@H]2N1 (racemic) is strictly less than 800 nM?
stdout: True
